- assayed.system: 5-hydroxytryptamine receptor 2C (Homo sapiens, UniProt P28335)
- Sequence (P28335 whole entry): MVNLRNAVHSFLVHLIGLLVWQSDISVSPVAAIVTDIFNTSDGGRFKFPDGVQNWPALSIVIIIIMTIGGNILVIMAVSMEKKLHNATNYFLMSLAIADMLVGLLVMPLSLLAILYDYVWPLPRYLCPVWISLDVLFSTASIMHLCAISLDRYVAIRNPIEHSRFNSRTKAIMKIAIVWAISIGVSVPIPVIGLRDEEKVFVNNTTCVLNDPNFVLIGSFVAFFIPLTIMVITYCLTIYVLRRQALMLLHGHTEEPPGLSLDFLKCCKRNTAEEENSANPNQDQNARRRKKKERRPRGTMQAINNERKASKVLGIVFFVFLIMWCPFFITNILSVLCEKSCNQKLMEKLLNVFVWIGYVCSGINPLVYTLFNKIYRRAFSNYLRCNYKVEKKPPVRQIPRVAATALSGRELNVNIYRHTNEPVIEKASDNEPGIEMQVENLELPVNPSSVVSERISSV
We begin with a simple list: items and their reported log10 IC50.
observable: log10 IC50 (log10 of the value in nM)

INSERT INTO results (test_smiles, observable, assay_value) VALUES
  ('Cc1[nH]c2ccc(OS(=O)(=O)C(F)(F)F)cc2c1C1=CCNCC1', 'log10 IC50', 3.00),
  ('Cc1[nH]c2ccc(F)cc2c1C1=CCNCC1', 'log10 IC50', 2.85),
  ('Cc1[nH]c2ccc(Br)cc2c1C1=CCNCC1', 'log10 IC50', 2.62),
  ('C1=C(c2c(-c3ccccc3)[nH]c3ccccc23)CCNC1', 'log10 IC50', 2.00),
  ('Cc1[nH]c2ccccc2c1C1=CCNCC1', 'log10 IC50', 3.46);
